- Assayed Target: P38 (Homo sapiens)
- Sequence (Q16539 whole entry): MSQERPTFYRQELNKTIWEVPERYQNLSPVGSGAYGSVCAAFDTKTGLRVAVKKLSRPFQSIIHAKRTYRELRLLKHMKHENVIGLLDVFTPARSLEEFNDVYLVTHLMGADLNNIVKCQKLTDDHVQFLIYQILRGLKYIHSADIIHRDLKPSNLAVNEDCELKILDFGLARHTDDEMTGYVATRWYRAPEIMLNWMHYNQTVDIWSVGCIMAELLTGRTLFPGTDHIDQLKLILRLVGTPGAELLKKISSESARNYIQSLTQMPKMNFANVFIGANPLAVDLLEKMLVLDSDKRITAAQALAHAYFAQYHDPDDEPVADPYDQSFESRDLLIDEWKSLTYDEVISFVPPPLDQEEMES
- Assay: p38 inhibition in-vitro enzyme assay
- Measurement Parameters: recombinant 6×His-p38
pIC50: −log10 of the molar value.
// values below are reported pIC50
Property Measured: pIC50

{"Record Smiles": "OCc1c(-c2ccc(F)cc2)c(-c2ccncc2)cn1CCN1CCOCC1", "Property Measured": "pIC50", "Observed": 7.80}
{"Record Smiles": "CCOC(=O)c1c(-c2ccc(F)cc2)c(-c2ccncc2)c(N2CCNCC2)n1C", "Property Measured": "pIC50", "Observed": "< 5.00"}
{"Record Smiles": "OCCNCc1[nH]cc(-c2ccc(F)cc2)c1-c1ccncc1", "Property Measured": "pIC50", "Observed": "< 5.70"}
